Each entry below carries its recorded melting point.

compound	melting point
Cc1ccc(S(=O)(=O)NCCCCCCCCO)cc1 [18a]	87 to 88 °C
Cc1ccc(S(=O)(=O)NCCCCCCCCOS(N)(=O)=O)cc1 [18b]	98 to 100 °C
O=S(=O)(NCCCCCCO)c1ccccc1 [5a, N-(6-Hydroxyhexyl)benzene Sulfonamide]	40 to 42 °C
O=S(=O)(NCCCCCCCCCCCO)c1ccccc1 [10a, N-(11-Hydroxyundecyl)benzene Sulfonamide]	58 to 59 °C
NS(=O)(=O)OCCCCCCCCNS(=O)(=O)c1ccc(C23CC4CC(CC(C4)C2)C3)cc1 [77b]	85 to 86 °C
CC(C)c1ccc(S(=O)(=O)NCCCCCOS(N)(=O)=O)cc1 [36b]	95 to 97 °C
Cc1ccc(S(=O)(=O)NCCCCCOS(N)(=O)=O)cc1 [15b]	94 to 95 °C
CC(C)(C)c1ccc(S(=O)(=O)NCCCOS(N)(=O)=O)cc1 [50b]	85 to 86 °C
O=S(=O)(NCCCCCCCCO)c1ccc(C23CC4CC(CC(C4)C2)C3)cc1 [77a]	101 to 102 °C

====

- target_of_assay: bovine carbonic anhydrase II (Bos taurus)
- Construct: carbonic anhydrase II (bCAII, ≥3000 W-A units/mg from bovine erythrocytes) from Sigma; purchased Sigma (Taufkirchen, Germany); host or cells: isolated from bovine erythrocytes
- method: Enzymatic assay of bCA II inhibition, absorbance at 415 nm
- Assay type: biochemical
- settings: bCA II; 1 μM concentration of the inhibitor; triplicate with three technical replicas
readout_kind: inhibition at 1 µM (%)

molecule	readout_kind	recorded_result
NS(=O)(=O)OCCCCCCCCNS(=O)(=O)c1ccccc1 [7b, 8-(Phenylsulfonamido]octyl Sulfamate]	inhibition at 1 µM	60.2
NS(=O)(=O)OCCCCCCCCCCNS(=O)(=O)c1ccc(C23CC4CC(CC(C4)C2)C3)cc1 [79b]	inhibition at 1 µM	40.1
CC(C)c1cccc(S(=O)(=O)NCCCCCCCCOS(N)(=O)=O)c1 [46b]	inhibition at 1 µM	29.5
NS(=O)(=O)OCCCCCCCCCCNS(=O)(=O)c1ccccc1 [9b, 10-(Phenylsulfonamido]decyl Sulfamate]	inhibition at 1 µM	10.7
NS(=O)(=O)OCCCCCCCCCNS(=O)(=O)c1ccc(C23CC4CC(CC(C4)C2)C3)cc1 [78b]	inhibition at 1 µM	36.1
CC(C)(C)c1cccc(S(=O)(=O)NCCOS(N)(=O)=O)c1 [58b]	inhibition at 1 µM	54
NS(=O)(=O)OCCNS(=O)(=O)c1ccccc1 [1b, 2-(Phenylsulfonamido]ethyl Sulfamate]	inhibition at 1 µM	59.2
Cc1ccccc1S(=O)(=O)NCCCCCCCCOS(N)(=O)=O [32b]	inhibition at 1 µM	56.2

====

Ki overview
- target_of_assay: bovine carbonic anhydrase II (Bos taurus)
- Construct: carbonic anhydrase II (bCAII, ≥3000 W-A units/mg from bovine erythrocytes) from Sigma
- method: Enzymatic assay of bCA II inhibition, absorbance at 415 nm
- settings: CA II; from Lineweaver–Burk, Dixon and Cornish Bowden plots; read-out: Inhibition constant Ki

molecule	target_of_assay	Ki
CC(C)c1ccc(S(=O)(=O)NCCOS(N)(=O)=O)cc1 [33b]	bovine carbonic anhydrase II (Bos taurus)	840 nM
CC(C)c1cccc(S(=O)(=O)NCCOS(N)(=O)=O)c1 [40b]	bovine carbonic anhydrase II (Bos taurus)	1640 nM
Cc1ccccc1S(=O)(=O)NCCOS(N)(=O)=O [26b]	bovine carbonic anhydrase II (Bos taurus)	1100 nM
Cc1ccc(S(=O)(=O)NCCOS(N)(=O)=O)cc1 [12b]	bovine carbonic anhydrase II (Bos taurus)	760 nM
CC(C)(C)c1ccc(S(=O)(=O)NCCOS(N)(=O)=O)cc1 [49b]	bovine carbonic anhydrase II (Bos taurus)	670 nM
Cc1ccccc1S(=O)(=O)NCCCCCCOS(N)(=O)=O [30b]	bovine carbonic anhydrase II (Bos taurus)	1580 nM

====

compound	melting point
CC(C)(C)c1ccc(S(=O)(=O)NCCCCCCCCCOS(N)(=O)=O)cc1 [56b]	106 to 107 °C
Cc1cccc(S(=O)(=O)NCCCCCOS(N)(=O)=O)c1 [22b]	67 to 68 °C
Cc1ccc(S(=O)(=O)NCCO)cc1 [12a]	55 to 57 °C
CC(C)(C)c1ccc(S(=O)(=O)NCCCCCCOS(N)(=O)=O)cc1 [53b]	89 to 90 °C
CC(C)(C)c1ccc(S(=O)(=O)NCCCCCCCCOS(N)(=O)=O)cc1 [55b]	79 to 81 °C
Cc1cccc(S(=O)(=O)NCCCCCCOS(N)(=O)=O)c1 [23b]	74 to 75 °C
NS(=O)(=O)OCCCCCCCCCCNS(=O)(=O)c1ccccc1 [9b, 10-(Phenylsulfonamido]decyl Sulfamate]	89 to 91 °C
Cc1ccc(S(=O)(=O)NCCCCCO)cc1 [15a]	60 to 61 °C
Cc1ccc(S(=O)(=O)NCCCCOS(N)(=O)=O)cc1 [14b]	66 to 68 °C
Cc1cccc(S(=O)(=O)NCCCCCCCCOS(N)(=O)=O)c1 [25b]	54 to 56 °C

====

- target_of_assay: bovine carbonic anhydrase II (Bos taurus, UniProt P00921)
- Construct: carbonic anhydrase II (bCAII, ≥3000 W-A units/mg from bovine erythrocytes) from Sigma; purchased Sigma (Taufkirchen, Germany); host or cells: isolated from bovine erythrocytes
- Sequence (P00921 whole entry): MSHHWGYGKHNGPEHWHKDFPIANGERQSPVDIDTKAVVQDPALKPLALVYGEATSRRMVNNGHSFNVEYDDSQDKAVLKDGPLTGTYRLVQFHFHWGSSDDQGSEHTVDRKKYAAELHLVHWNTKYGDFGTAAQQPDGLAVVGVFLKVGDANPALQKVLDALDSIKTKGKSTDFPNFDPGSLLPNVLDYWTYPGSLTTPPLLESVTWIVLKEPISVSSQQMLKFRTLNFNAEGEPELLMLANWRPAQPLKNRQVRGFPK
- method: Enzymatic assay of bCA II inhibition, absorbance at 415 nm;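 also: enzyme is carbonic anhydrase II isolated from bovine erythrocytes, with its activity followed photometrically at 415 nm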
- Format: biochemical
- settings: bCA II; 1 μM concentration of the inhibitor; triplicate with three technical replicas

molecule	target_of_assay	unit_of_measure	inhibition at 1 µM
Cc1ccc(S(=O)(=O)NCCCOS(N)(=O)=O)cc1 [13b]	bovine carbonic anhydrase II (Bos taurus, UniProt P00921)	%	63.8
Cc1cccc(S(=O)(=O)NCCCCOS(N)(=O)=O)c1 [21b]	bovine carbonic anhydrase II (Bos taurus, UniProt P00921)	%	32.2
CC(C)c1cccc(S(=O)(=O)NCCCCCCCOS(N)(=O)=O)c1 [45b]	bovine carbonic anhydrase II (Bos taurus, UniProt P00921)	%	37
CC(C)c1ccccc1S(=O)(=O)NCCCCCCCOS(N)(=O)=O [47b]	bovine carbonic anhydrase II (Bos taurus, UniProt P00921)	%	38.4
CC(C)(C)c1ccccc1S(=O)(=O)NCCCCCCOS(N)(=O)=O [66b]	bovine carbonic anhydrase II (Bos taurus, UniProt P00921)	%	34.5

====

The reader will find reported melting point values listed item by item below.
readout_kind: melting point

compound	recorded_result
CC(C)(C)c1ccc(S(=O)(=O)NCCCCCCCO)cc1 [54a]	51 to 52 °C
O=S(=O)(NCCCCCCCCCCCCO)c1ccccc1 [11a, N-(12-Hydroxydodecyl)benzene Sulfonamide]	76 to 77 °C
CC(C)(C)c1cccc(S(=O)(=O)NCCCCCCCCOS(N)(=O)=O)c1 [64b]	57 to 59 °C
Cc1cccc(S(=O)(=O)NCCOS(N)(=O)=O)c1 [19b]	36 to 38 °C
O=S(=O)(NCCCCCCCCCCO)c1ccc(C23CC4CC(CC(C4)C2)C3)cc1 [79a]	76 to 79 °C

====

Listed here: items and their measured melting point.
readout_kind: melting point

molecule	readout_kind	recorded_result
NS(=O)(=O)OCCCCCCCNS(=O)(=O)c1ccccc1 [6b, 7-(Phenylsulfonamido]heptyl Sulfamate]	melting point	59 to 61 °C
NS(=O)(=O)OCCCNS(=O)(=O)c1ccc(C2CCCCC2)cc1 [69b]	melting point	113 to 114 °C
Cc1ccc(S(=O)(=O)NCCCCCCCOS(N)(=O)=O)cc1 [17b]	melting point	85 to 86 °C
O=S(=O)(NCCCCCCCCO)c1ccccc1 [7a, N-(8-Hydroxyoctyl)benzene Sulfonamide]	melting point	59 to 60 °C
Cc1ccc(S(=O)(=O)NCCCCCCO)cc1 [16a]	melting point	49 to 51 °C
Cc1cccc(S(=O)(=O)NCCCCOS(N)(=O)=O)c1 [21b]	melting point	62 to 64 °C
O=S(=O)(NCCCCCCCCCO)c1ccccc1 [8a, N-(9-Hydroxynonyl)benzene Sulfonamide]	melting point	40 to 41 °C
CC(C)(C)c1ccc(S(=O)(=O)NCCCCO)cc1 [51a]	melting point	58 to 60 °C
O=S(=O)(NCCCCCCCCCCO)c1ccccc1 [9a, N-(10-Hydroxydecyl)benzene Sulfonamide]	melting point	67 to 69 °C
CC(C)(C)c1ccc(S(=O)(=O)NCCCCCCCCCCOS(N)(=O)=O)cc1 [57b]	melting point	92 to 93 °C
NS(=O)(=O)OCCCCCCCCCCNS(=O)(=O)c1ccc(C23CC4CC(CC(C4)C2)C3)cc1 [79b]	melting point	87 to 89 °C
Cc1cccc(S(=O)(=O)NCCCOS(N)(=O)=O)c1 [20b]	melting point	73 to 74 °C
NS(=O)(=O)OCCCNS(=O)(=O)c1ccccc1 [2b, 3-(Phenylsulfonamido]propyl Sulfamate]	melting point	64 to 66 °C
O=S(=O)(NCCO)c1ccccc1 [1a, N-(2-Hydroxyethyl)benzene Sulfonamide]	melting point	78 to 79 °C
Cc1cccc(S(=O)(=O)NCCCCCCCOS(N)(=O)=O)c1 [24b]	melting point	55 to 57 °C
O=S(=O)(NCCCCCCCCCO)c1ccc(C23CC4CC(CC(C4)C2)C3)cc1 [78a]	melting point	84 to 85 °C
Cc1ccccc1S(=O)(=O)NCCO [26a]	melting point	73 to 74 °C
Cc1ccc(S(=O)(=O)NCCCCO)cc1 [14a]	melting point	50 to 51 °C
CC(C)c1ccc(S(=O)(=O)NCCCOS(N)(=O)=O)cc1 [34b]	melting point	83 to 84 °C
NS(=O)(=O)OCCCCCCCCCNS(=O)(=O)c1ccccc1 [8b, 9-(Phenylsulfonamido]nonyl Sulfamate]	melting point	82 to 84 °C
CC(C)c1ccc(S(=O)(=O)NCCCCCCCOS(N)(=O)=O)cc1 [38b]	melting point	70 to 72 °C
CC(C)(C)c1ccc(S(=O)(=O)NCCCCCOS(N)(=O)=O)cc1 [52b]	melting point	88 to 89 °C
CC(C)(C)c1ccc(S(=O)(=O)NCCCCCCCCCCO)cc1 [57a]	melting point	75 to 76 °C
CC(C)(C)c1ccc(S(=O)(=O)NCCO)cc1 [49a]	melting point	75 to 77 °C
CC(C)(C)c1ccc(S(=O)(=O)NCCCCCCCOS(N)(=O)=O)cc1 [54b]	melting point	95 to 96 °C
O=S(=O)(NCCCCCCO)c1ccc(C2CCCCC2)cc1 [72a]	melting point	87 to 88 °C
CC(C)c1ccc(S(=O)(=O)NCCOS(N)(=O)=O)cc1 [33b]	melting point	81 to 82 °C
CC(C)(C)c1ccc(S(=O)(=O)NCCOS(N)(=O)=O)cc1 [49b]	melting point	92 to 93 °C
Cc1ccc(S(=O)(=O)NCCCO)cc1 [13a]	melting point	55 to 57 °C
NS(=O)(=O)OCCCCCCNS(=O)(=O)c1ccccc1 [5b, 6-(Phenylsulfonamido]hexyl Sulfamate]	melting point	64 to 66 °C
CC(C)c1ccc(S(=O)(=O)NCCCCCCCCOS(N)(=O)=O)cc1 [39b]	melting point	69 to 70 °C
Cc1ccccc1S(=O)(=O)NCCCOS(N)(=O)=O [27b]	melting point	68 to 70 °C
CC(C)(C)c1ccc(S(=O)(=O)NCCCCCO)cc1 [52a]	melting point	53 to 54 °C
NS(=O)(=O)OCCCCCCNS(=O)(=O)c1ccc(C2CCCCC2)cc1 [72b]	melting point	86 to 88 °C
CC(C)(C)c1ccc(S(=O)(=O)NCCCCCCCCCO)cc1 [56a]	melting point	69 to 70 °C
Cc1ccc(S(=O)(=O)NCCOS(N)(=O)=O)cc1 [12b]	melting point	79 to 81 °C
CC(C)(C)c1ccc(S(=O)(=O)NCCCCOS(N)(=O)=O)cc1 [51b]	melting point	100 to 102 °C
NS(=O)(=O)OCCCCCCCCNS(=O)(=O)c1ccccc1 [7b, 8-(Phenylsulfonamido]octyl Sulfamate]	melting point	77 to 78 °C
NS(=O)(=O)OCCCCCCCCCNS(=O)(=O)c1ccc(C23CC4CC(CC(C4)C2)C3)cc1 [78b]	melting point	94 to 96 °C
NS(=O)(=O)OCCCCCCCCCNS(=O)(=O)c1ccc(C2CCCCC2)cc1 [75b]	melting point	88 to 89 °C

Source: paper PMC11243685
